PROTOCOL_NOTES: Inhibition of HIV1 reverse transcriptase 41L/69S-SG/184V/210W/215Y mutant by heteropolymeric DNA polymerase assay
Design: species or system Human immunodeficiency virus 1
pIC50: −log10 of the molar value.
# pIC50 values compiled below
PROPERTY_NAME: pIC50

[
  {
    "COMPOUND": "Cc1cn([C@H]2C[C@H](N=[N+]=[N-])[C@@H](COP(=O)(O)OP(=O)(O)OP(=O)(O)O)O2)c(=O)[nH]c1=O [ZIDOVUDINE TRIPHOSPHATE]",
    "PROPERTY_NAME": "pIC50",
    "VALUE_MEASURED": 6.68
  },
  {
    "COMPOUND": "Cc1cn([C@H]2CO[C@@H](COP(=O)(O)OP(=O)(O)OP(=O)(O)O)O2)c(=O)[nH]c1=O",
    "PROPERTY_NAME": "pIC50",
    "VALUE_MEASURED": 6.66
  },
  {
    "COMPOUND": "Nc1nc2c(ncn2[C@H]2CO[C@@H](COP(=O)(O)OP(=O)(O)OP(=O)(O)O)O2)c(=O)[nH]1",
    "PROPERTY_NAME": "pIC50",
    "VALUE_MEASURED": 6.85
  },
  {
    "COMPOUND": "Nc1nc(=O)c2ncn([C@H]3C=C[C@@H](COP(=O)(O)OP(=O)(O)OP(=O)(O)O)C3)c2[nH]1 [CARBOVIR 5'-TRIPHOSPHATE, (-)-]",
    "PROPERTY_NAME": "pIC50",
    "VALUE_MEASURED": 5.47
  }
]

* * *

PROTOCOL_NOTES: Inhibition of HIV1 reverse transcriptase 41L/69S-SG/210W/215Y mutant in presence of 5 mM ATP by heteropolymeric DNA polymerase assay
Set-up: species or system Human immunodeficiency virus 1

[
  {
    "COMPOUND": "C[C@H](Cn1cnc2c(N)ncnc21)OCP(=O)(O)OP(=O)(O)OP(=O)(O)O",
    "IC50": "24 µM"
  },
  {
    "COMPOUND": "Nc1nc(=O)c2ncn([C@H]3C=C[C@@H](COP(=O)(O)OP(=O)(O)OP(=O)(O)O)C3)c2[nH]1 [CARBOVIR 5'-TRIPHOSPHATE, (-)-]",
    "IC50": "5.1 µM"
  },
  {
    "COMPOUND": "Nc1nc2c(ncn2[C@H]2CO[C@@H](COP(=O)(O)OP(=O)(O)OP(=O)(O)O)O2)c(=O)[nH]1",
    "IC50": "0.34 µM"
  },
  {
    "COMPOUND": "Cc1cn([C@H]2CO[C@@H](COP(=O)(O)OP(=O)(O)OP(=O)(O)O)O2)c(=O)[nH]c1=O",
    "IC50": "1.6 µM"
  },
  {
    "COMPOUND": "Cc1cn([C@H]2C[C@H](N=[N+]=[N-])[C@@H](COP(=O)(O)OP(=O)(O)OP(=O)(O)O)O2)c(=O)[nH]c1=O [ZIDOVUDINE TRIPHOSPHATE]",
    "IC50": "4.4 µM"
  }
]

* * *

PROTOCOL_NOTES: Inhibition of HIV1 reverse transcriptase wild type HXB2(b) in presence of 3.2 mM ATP by prA/odT assay
Set-up: species or system Human immunodeficiency virus 1
PROPERTY_NAME: Ki (nM)

[
  {
    "COMPOUND": "Cc1cn([C@H]2CO[C@@H](COP(=O)(O)OP(=O)(O)OP(=O)(O)O)O2)c(=O)[nH]c1=O",
    "PROPERTY_NAME": "Ki",
    "VALUE_MEASURED": 1.8
  },
  {
    "COMPOUND": "Cc1cn([C@H]2C[C@H](N=[N+]=[N-])[C@@H](COP(=O)(O)OP(=O)(O)OP(=O)(O)O)O2)c(=O)[nH]c1=O [ZIDOVUDINE TRIPHOSPHATE]",
    "PROPERTY_NAME": "Ki",
    "VALUE_MEASURED": 4
  }
]
